Values were extracted from BindingDB's records for doi:10.1021/jm500228a.

- assay.text: Inhibition of Flt3 in human MV411 cells assessed as assessed as proliferation after 72 hrs incubation by spectrophotometry
assay.readout: EC50 (nM)
Only the number, expressed in nM, is required.

Q) Could you please provide reported EC50 for c1cn2cc(-c3ccc4cn[nH]c4c3)nc(Nc3ccc(N4CCOCC4)cc3)c2n1 ? Thanks!
A) 327
